tested on: K98450-129-R-PDC complex spheroid growth, percent test/control; assay: Anticancer human tumor K98450-129-R-PDC patient-derived colon adenocarcinoma cell line growth inhibition [RAS]; conditions: second compound 0.00949 µM; first compound 0.00316 µM; stronger effect = lower value
assay_readout: viability, T/C

[[record]]
compound = "CCN1CCN(Cc2ccc(Nc3ncc(F)c(-c4cc(F)c5nc(C)n(C(C)C)c5c4)n3)nc2)CC1 + CCn1c(-c2cc(N3CCN(C)CC3)cnc2C(C)OC)c2c3cc(ccc31)-c1csc(n1)CC(NC(=O)C1CC1C)C(=O)N1CCCC(N1)C(=O)OCC(C)(C)C2"
result = "79.8%"

[[record]]
compound = "Nc1ccn(C2OC(CO)C(O)C2(F)F)c(=O)n1 (configuration not stated) + CCn1c(-c2cc(N3CCN(C)CC3)cnc2C(C)OC)c2c3cc(ccc31)-c1csc(n1)CC(NC(=O)C1CC1C)C(=O)N1CCCC(N1)C(=O)OCC(C)(C)C2"
result = "77%"


###

viability, T/C listing for selected compounds.
system: K98450-129-R-PDC complex spheroid growth, percent test/control; assay: Anticancer human tumor K98450-129-R-PDC cell line growth inhibition [RAS]; conditions: second compound 0.1 µM; first compound 0.0949 µM; stronger effect = lower value;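 note: spheroids exposed to agents for seven days before the viability readout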;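 for viability, T/C: luminescence used as a proxy for viable cell amount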
assay_readout: viability, T/C (%)

[[record]]
compound = "CC1(C)CCC(Nc2ncc(C(F)(F)F)c(-c3c[nH]c4c(P(C)(C)=O)c(C#N)ccc34)n2)CN1 (centres undefined) + C#Cc1c(F)ccc2cc(O)cc(-c3ncc4c(N5CC6CCC(C5)N6)nc(OCC56CCCN5CC(F)C6)nc4c3F)c12"
measured_number = 89.3

[[record]]
compound = "CC1(C)CCC(Nc2ncc(C(F)(F)F)c(-c3c[nH]c4c(P(C)(C)=O)c(C#N)ccc34)n2)CN1 (centres undefined) + C=CC(=O)N1CCN(c2nc(OCC3CCCN3C)nc3c(F)c(-c4nc(N)cc(C)c4C(F)(F)F)c(Cl)cc23)C(C)C1"
measured_number = 46

[[record]]
compound = "CCc1c2c(nc3ccc(O)cc13)-c1cc3c(c(=O)n1C2)COC(=O)[C@]3(O)CC + C=CC(=O)N1CCN(c2nc(OCC3CCCN3C)nc3c(F)c(-c4nc(N)cc(C)c4C(F)(F)F)c(Cl)cc23)C(C)C1"
measured_number = 16.7

[[record]]
compound = "CCc1c2c(nc3ccc(O)cc13)-c1cc3c(c(=O)n1C2)COC(=O)[C@]3(O)CC + C#Cc1c(F)ccc2cc(O)cc(-c3ncc4c(N5CC6CCC(C5)N6)nc(OCC56CCCN5CC(F)C6)nc4c3F)c12"
measured_number = 44.4


###

A collection of compounds and their measured viability, T/C
System: K98450-129-R-PDC complex spheroid growth, percent test/control
Assay: Anticancer human tumor K98450-129-R-PDC cell line growth inhibition [RAS];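 note: spheroids exposed to agents for seven days before the viability readout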;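 for viability, T/C: luminescence used as a proxy for viable cell amount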
Settings: second compound 1 µM; first compound 0.000949 µM; stronger effect = lower value
Source text: RAS pathway inhibitors in Combinations in Complex Spheroids A high-throughput screen of multi-cell type tumor spheroids was designed to identify active combinations of RAS pathway inhibitors and targeted small molecules. Complex spheroids include a stromal component modeled by human endothelial cells (HUVEC) and fibroblasts modeled by human mesenchymal stem cells (MSCs). […] Compounds. […] If the clinical Cmax for an agent had not been determined, the highest concentration tested was 10 microM. […]
assay_readout: viability, T/C (%)

[[record]]
compound = "CC1(C)CCC(Nc2ncc(C(F)(F)F)c(-c3c[nH]c4c(P(C)(C)=O)c(C#N)ccc34)n2)CN1 (centres undefined) + C=CC(=O)N1CCN(c2nc(OCC3CCCN3C)nc3c(F)c(-c4nc(N)cc(C)c4C(F)(F)F)c(Cl)cc23)C(C)C1"
measured_number = 35.1

[[record]]
compound = "CCc1c2c(nc3ccc(O)cc13)-c1cc3c(c(=O)n1C2)COC(=O)[C@]3(O)CC + C=CC(=O)N1CCN(c2nc(OCC3CCCN3C)nc3c(F)c(-c4nc(N)cc(C)c4C(F)(F)F)c(Cl)cc23)C(C)C1"
measured_number = 31.7

[[record]]
compound = "CCc1c2c(nc3ccc(O)cc13)-c1cc3c(c(=O)n1C2)COC(=O)[C@]3(O)CC + C#Cc1c(F)ccc2cc(O)cc(-c3ncc4c(N5CC6CCC(C5)N6)nc(OCC56CCCN5CC(F)C6)nc4c3F)c12"
measured_number = 109

[[record]]
compound = "CC1(C)CCC(Nc2ncc(C(F)(F)F)c(-c3c[nH]c4c(P(C)(C)=O)c(C#N)ccc34)n2)CN1 (centres undefined) + C#Cc1c(F)ccc2cc(O)cc(-c3ncc4c(N5CC6CCC(C5)N6)nc(OCC56CCCN5CC(F)C6)nc4c3F)c12"
measured_number = 102


###

system: K98450-129-R-PDC complex spheroid growth, percent test/control; assay: Anticancer human tumor K98450-129-R-PDC cell line growth inhibition [RAS]; conditions: curve of first compound; second compound 0.01 µM;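 note: spheroids exposed to agents for seven days before the viability readout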
Below, each of the compounds is paired with its reported IC50 value.
assay_readout: IC50 (µM)

[[record]]
compound = "CCC(CC)c1cc(NC2CCC(N)C2)n2nccc2n1 (configuration not stated) + C=CC(=O)N1CCN(c2nc(OCC3CCCN3C)nc3c(F)c(-c4nc(N)cc(C)c4C(F)(F)F)c(Cl)cc23)C(C)C1"
unit_tag = "µM"
measured_number = 4.56

[[record]]
compound = "CC(=O)OC12COC1CC(O)C1(C)C(=O)C(O)C3=C(C)C(OC(=O)C(O)C(NC(=O)OC(C)(C)C)c4ccccc4)CC(O)(C(OC(=O)c4ccccc4)C21)C3(C)C (configuration not stated) + C=CC(=O)N1CCN(c2nc(OCC3CCCN3C)nc3c(F)c(-c4nc(N)cc(C)c4C(F)(F)F)c(Cl)cc23)C(C)C1"
unit_tag = "µM"
measured_number = 0.223


###

system: K98450-129-R-PDC complex spheroid growth, percent test/control; test: Anticancer human tumor K98450-129-R-PDC cell line growth inhibition [RAS]; settings: second compound 0.316 µM; first compound 0.316 µM; stronger effect = lower value;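 note: spheroids exposed to agents for seven days before the viability readout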;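 for viability, T/C: luminescence used as a proxy for viable cell amount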
assay_readout: viability, T/C (%)

[[record]]
molecule = "CC(Nc1ccc2c(c1)OCCn1cc(N3C(=O)OCC3C(F)F)nc1-2)C(N)=O (stereo not drawn) + C=CC(=O)N1CCN(c2nc(OCC3CCCN3C)nc3c(F)c(-c4nc(N)cc(C)c4C(F)(F)F)c(Cl)cc23)C(C)C1"
measured_number = 31.6

[[record]]
molecule = "Cc1nc(N2CCC3(CC2)COC(C)C3N)c(CO)nc1Sc1ccnc(N)c1Cl (stereo not drawn) + C=CC(=O)N1CCN(c2nc(OCC3CCCN3C)nc3c(F)c(-c4nc(N)cc(C)c4C(F)(F)F)c(Cl)cc23)C(C)C1"
measured_number = 10.1

[[record]]
molecule = "C[C@@H](NC(=O)c1ncnc(N)c1Cl)c1ncc(C(=O)Nc2cc(C(F)(F)F)c(Cl)cn2)s1 + C#Cc1c(F)ccc2cc(O)cc(-c3ncc4c(N5CC6CCC(C5)N6)nc(OCC56CCCN5CC(F)C6)nc4c3F)c12"
measured_number = 120


###

tested on: K98450-129-R-PDC complex spheroid growth, percent test/control; assay: Anticancer human tumor K98450-129-R-PDC cell line growth inhibition [RAS]; conditions: compound 0.3 µM; stronger effect = lower value;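 note: spheroids exposed to agents for seven days before the viability readout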;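 for viability, T/C: luminescence used as a proxy for viable cell amount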
Each record here notes measured viability, T/C.
assay_readout: viability, T/C

[[record]]
compound = "CCn1c(-c2cccnc2C(C)OC)c2c3cc(ccc31)N1CCOC(CC(NC(=O)C(C(C)C)N(C)C(=O)C3(F)CCN(C(=O)C#CC(C)(C)N(C)C)CC3)C(=O)N3CCCC(N3)C(=O)OCC(C)(C)C2)C1 (centres undefined)"
result = "35.3% [middle of 8 runs]"

[[record]]
compound = "CC1(C)CCC(Nc2ncc(C(F)(F)F)c(-c3c[nH]c4c(P(C)(C)=O)c(C#N)ccc34)n2)CN1 (centres undefined)"
result = "86.1% [middle of 4 runs]"

[[record]]
compound = "CCc1c2c(nc3ccc(O)cc13)-c1cc3c(c(=O)n1C2)COC(=O)[C@]3(O)CC"
result = "49.5% [middle of 4 runs]"

[[record]]
compound = "CCn1c(-c2cc(N3CCN(C)CC3)cnc2C(C)OC)c2c3cc(ccc31)-c1csc(n1)CC(NC(=O)C1CC1C)C(=O)N1CCCC(N1)C(=O)OCC(C)(C)C2 (centres undefined)"
result = "14.1% [middle of 8 runs]"


###

Tested on: K98450-129-R-PDC complex spheroid growth, percent test/control
Test: Anticancer human tumor K98450-129-R-PDC cell line growth inhibition [RAS]; active means viability on the fitted dose curve at most 10% of control; inactive means the rest;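 note: spheroids exposed to agents for seven days before the viability readout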
Conditions: second compound 0.3 µM; first compound 1 µM
Excerpt: RAS pathway inhibitors in Combinations in Complex Spheroids A high-throughput screen of multi-cell type tumor spheroids was designed to identify active combinations of RAS pathway inhibitors and targeted small molecules. Complex spheroids include a stromal component modeled by human endothelial cells (HUVEC) and fibroblasts modeled by human mesenchymal stem cells (MSCs). […] Compounds. […] If the clinical Cmax for an agent had not been determined, the highest concentration tested was 10 microM. […]
Labels: active, inactive

[[record]]
compound = "CC1(O)CCCC1n1c(=O)c(C(F)F)cc2cnc(NC3CCN(S(C)(=O)=O)CC3)nc21 (centres undefined) + CCn1c(-c2cccnc2C(C)OC)c2c3cc(ccc31)N1CCOC(CC(NC(=O)C(C(C)C)N(C)C(=O)C3(F)CCN(C(=O)C#CC(C)(C)N(C)C)CC3)C(=O)N3CCCC(N3)C(=O)OCC(C)(C)C2)C1"
answer_label = "inactive"

[[record]]
compound = "CC(C)NCC(C(=O)N1CCN(c2ncnc3c2C(C)CC3O)CC1)c1ccc(Cl)cc1 (centres undefined) + CCn1c(-c2cc(N3CCN(C)CC3)cnc2C(C)OC)c2c3cc(ccc31)-c1csc(n1)CC(NC(=O)C1CC1C)C(=O)N1CCCC(N1)C(=O)OCC(C)(C)C2"
answer_label = "inactive"

[[record]]
compound = "Cc1nc(N2CCC3(CC2)COC(C)C3N)c(CO)nc1Sc1ccnc(N)c1Cl (centres undefined) + CCn1c(-c2cccnc2C(C)OC)c2c3cc(ccc31)N1CCOC(CC(NC(=O)C(C(C)C)N(C)C(=O)C3(F)CCN(C(=O)C#CC(C)(C)N(C)C)CC3)C(=O)N3CCCC(N3)C(=O)OCC(C)(C)C2)C1"
answer_label = "active"

[[record]]
compound = "C=CC(=O)Nc1cc(Nc2nccc(-c3cn(C)c4ccccc34)n2)c(OC)cc1N(C)CCN(C)C + CCn1c(-c2cc(N3CCN(C)CC3)cnc2C(C)OC)c2c3cc(ccc31)-c1csc(n1)CC(NC(=O)C1CC1C)C(=O)N1CCCC(N1)C(=O)OCC(C)(C)C2"
answer_label = "active"


Cited source: PubChem BioAssay AID2060891
